target: T1, human-CD40-monomer protein (human, UniProt P25942 21-193, limits assumed); test: SPR, Ab captured on protein A, hCD40 monomer 500 and 50 nM, 1:1 fit; supernatant
T1 construct: Soluble monomer generated in house, used as SPR analyte; also called hCD40; hCD40-monomer
T1 sequence (P25942 21-193 limits assumed): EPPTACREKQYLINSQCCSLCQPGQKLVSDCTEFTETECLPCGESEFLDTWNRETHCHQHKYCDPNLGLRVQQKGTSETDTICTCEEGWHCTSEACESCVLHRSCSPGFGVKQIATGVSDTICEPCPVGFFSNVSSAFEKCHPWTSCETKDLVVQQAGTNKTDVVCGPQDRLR
# key: entry, value: pKd
Keep it numeric: pKd is minus log10 of the concentration in mol/L.

Please review the following examples before continuing.
Y12XX-hz6 (antibody, human IgG1, kappa, V domains shown, Humanized, IgG1-P238K; supernatant sample) VH: QVQLVQSGAEVKKPGSSVKVSCKASGYAFTSYWMHWVRQRPGQGLEWIGYINPTTGYSAYNQKFKDKATLTADKSTSTAYMELNSLRSEDTAVYYCARWDPRPFAYWGQGTLVTVSS VL: DIQMTQSPSSLSASVGDRVTITCKASQDVSTAVAWYQQKPGKAPKLLIYSASYRYTGVPSRFSGSGSGTDFTFTISSLQPEDIATYYCQQHYSTPWTFGGGTKVEIKR | 8.19
Y12XX-hz32 (antibody, human IgG1, kappa, V domains shown, Humanized, IgG1-P238K; supernatant sample) VH: QVQLVQSGAEVKKPGSSVKVSCKASGYAFTSYWMHWVRQAPGQGLEWMGYINPTTGYSAYNQKFKDKATLTADKSTSTAYMELSSLRSEDTAVYYCARWDPRPFAYWGQGTLVTVSS VL: EIVMTQSPATLSVSPGERATLSCKASQDVSTAVAWYQQKPGQAPRLLIYSASYRYTGIPARFSGSGSGTEFTLTISSLQSEDFAVYYCQQHYSTPWTFGGGTKVEIKR | 8.00
Y12XX-hz19 (antibody, human IgG1, kappa, V domains shown, Humanized, IgG1-P238K; supernatant sample) VH: QVQLVQSGAEVKKPGSSVKVSCKASGYAFTSYWMHWVRQRPGQGLEWMGYINPTTGYSAYNQKFKDKATLTADKSTSTAYMELSSLRSEDTAVYYCARWDPRPFAYWGQGTLVTVSS VL: DIQMTQSPSFLSASVGDRVTITCKASQDVSTAVAWYQQKPGKAPKLLIYSASYRYTGVPSRFSGSGSGTDFTLTISSLQPEDFATYYCQQHYSTPWTFGGGTKVEIKR | 8.21
Y12XX-hz16 (antibody, human IgG1, kappa, V domains shown, Humanized, IgG1-P238K; supernatant sample) VH: QVQLVQSGAEVKKPGSSVKVSCKASGYAFTSYWMHWVRQRPGQGLEWMGFINPTTGYSEYNQKFKDRVTITADKSTSTAYMELSSLRSEDTAVYYCARWGLPPFAYWGQGTLVTVSS VL: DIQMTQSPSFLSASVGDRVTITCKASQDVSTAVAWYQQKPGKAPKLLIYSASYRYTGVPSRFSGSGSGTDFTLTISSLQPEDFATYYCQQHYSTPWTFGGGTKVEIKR | 8.49

// next item, pKd requested
Recorded pKd for Y12XX-hz31 (antibody, human IgG1, kappa, V domains shown, Humanized, IgG1-P238K; supernatant sample) VH: QVQLVQSGAEVKKPGSSVKVSCKASGYAFTSYWMHWVRQRPGQGLEWIGFINPTTGYSEYNQKFKDRVTITADKSTSTAYMELNSLRSEDTAVYYCARWGLPPFAYWGQGTLVTVSS VL: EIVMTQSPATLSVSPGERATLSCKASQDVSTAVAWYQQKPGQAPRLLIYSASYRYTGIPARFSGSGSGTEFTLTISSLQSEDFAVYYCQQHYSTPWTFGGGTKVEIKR , please? 11.15
